Tested on: HL-60
assay_overview: NCI tumour cell line growth inhibition, 48 h
Calls of active or inactive are those of the source. No stated cut-off is given here; in the data, active = GI50 up to about 1.1 µM and inactive = higher. Where a SMILES comes first, the peptide text is derived from it. [ ]: non-standard residue; d: D form. The star is where a group is joined. ξ: configuration not given here. X38 = O=C(OCc1ccccc1)[C@@H]1CCC[C@H]1N*; Fmoc = O=C(OCC1c2ccccc2-c2ccccc21)*; ξW = NC(Cc1c[nH]c2ccccc12)C(=O)O; ξF = NC(Cc1ccccc1)C(=O)O; Boc = CC(C)(C)OC(=O)*; ξK = NCCCCC(N)C(=O)O; ξT = CC(O)C(N)C(=O)O; tBu = CC(C)(C)*
Labels: yes = active, no = inactive

compound	class
NC(=S)c1cccc(C2Nc3ccccc3O2)c1 (centres undefined)	no
O=c1cc(-c2ccccc2)[nH]c2ccc(N3CCOCC3)cc12	yes
CNC(=O)/C(C#N)=C(\N)N1CCCC1	no
CC(C)c1cccc(C(C)C)c1NC(=O)/C(Cc1nc2ccc(Cl)cc2nc1O)=N\NC(=O)C[N+](C)(C)C	no
Cc1c(/C=N/NC(=S)Nc2ccc([N+](=O)[O-])cc2)c(=O)n(-c2ccccc2)n1C	no
O=C1CSC(c2cc3cc(Br)ccc3nc2Cl)N1c1ccc(Cl)cc1 (centres undefined)	no
Cc1ccc(/C=C/C(=O)c2c([O-])on[n+]2-c2ccccc2)cc1	no
O=C1/C(=C/c2ccccc2)Oc2cc(O)ccc21	no
COc1nc(C(=O)O)c(Cl)c(OC)c1Cl	no
C[n+]1c(-c2ccc(/C=N/NC(=N)N/N=C/c3ccc(-c4cn5cc(Cl)ccc5[n+]4C)cc3)cc2)cn2cc(Cl)ccc21	no
CCOC(=O)NN(C(=O)OCC)c1ccc(/N=N/c2ccc(OC)cc2)n1C	no
O=C1C(Cl)N(c2ccccc2[N+](=O)[O-])C1c1c[nH]c2ccccc12 (centres undefined)	no
C/C(=N/NC(=O)C[n+]1ccccc1)C(CN(CC(C)C)CC(C)C)C(=O)Nc1ccc(C)cc1C (centres undefined)	no
COC(=O)[C@H](Cc1ccccc1)NC(=O)N(CCNC(=O)OC(C)(C)C)c1ccccc1	no
CCCCCCCCCCCCCCCCCCOCC1(COP(=O)([O-])OCC[N+](C)(C)C)CCCO1 (centres undefined)	no
CCC1CN2CCc3cc(OC)c(OC)cc3C2CC1CC1c2cc(OC)c(OC)cc2CCN1C(=O)C1CCCN1 (centres undefined)	no
CC(OC(C)(C)C)C(NC(=O)C(CCCCNC(=O)OC(C)(C)C)NC(=O)C(Cc1c[nH]c2ccccc12)NC(=O)C(Cc1ccccc1)NC(=O)OCC1c2ccccc2-c2ccccc21)C(=O)NC(Cc1ccccc1)C(=O)N[C@@H]1CCC[C@H]1C(=O)OCc1ccccc1 (some centres undefined) (Fmoc-[ξF][ξW][ξK](Boc)[ξT](tBu)[ξF]-X38)	no
COc1ccc(/C=C2\N/C(=N\N=C/C(O)C(O)C(O)C(O)CO)NC2=O)cc1 (centres undefined)	no
COC12CCC(C(C(=O)c3ccccc3)=C1C(=O)c1ccccc1)C(O)C2 (centres undefined)	no

---

Tested on: MOLT-4
assay_overview: NCI tumour cell line growth inhibition, 48 h
Activity calls are given as the source filed them. Rule as the data show it: active = GI50 up to about 1.1 µM and inactive = higher.
measured_property: GI50

molecule	measured_property	reported_value
CC(=O)O[C@H]1C[C@H]2[C@@H](OC(C)=O)/C=C3\C[C@](C)(C(=O)[C@H](O)C(=C1C)C2(C)C)[C@@H](O)C[C@@H]3OC(=O)[C@H](O)[C@H](c1ccccc1)N(C)C	GI50	> 100 µM (inactive)
C[C@]12Cc3cn[nH]c3C(=O)C1CC[C@@H]1C2CC[C@@]2(C)C1CC[C@@H]2O (stereo not given in full)	GI50	> 100 µM (inactive)
O=C1NC2C(O)CCCCC2C12CCCCC2 (stereo not given)	GI50	> 100 µM (inactive)
CC1=CC[C@H](C(C)C)C(C(O)[C@@H](C)O[Si](c2ccccc2)(c2ccccc2)C(C)(C)C)C1=O (stereo not given in full)	GI50	7.36 µM (inactive)
O=C(O)c1cc(C(=O)O)nc(C(=O)O)c1	GI50	> 100 µM (inactive)
COc1cc(C2c3cc4c(cc3OC(N3CCNCC3)C2C)OCO4)cc(OC)c1OC (stereo not given)	GI50	1.16 µM (inactive)
O=C(N/N=C/c1c(-c2ccccc2)no[n+]1[O-])N1CCOCC1	GI50	26.3 µM (inactive)
Cc1c(C(=O)CSc2nc3ccccc3c(=O)n2-c2ccccc2)c(=O)n(-c2ccccc2)n1C	GI50	> 100 µM (inactive)
CN(C)CCCc1c[nH]c2ccccc12	GI50	> 100 µM (inactive)
O=C(OC1CC(n2cc(F)c(=O)[nH]c2=O)OC1CSC(=O)c1ccccc1)c1ccccc1 (stereo not given)	GI50	25.7 µM (inactive)
COC(=O)[C@H](Cc1ccccc1)NC(=O)N(CCNC(=O)OC(C)(C)C)c1ccccc1	GI50	> 100 µM (inactive)
CNC(=O)Nc1ccccc1	GI50	> 100 µM (inactive)
CC[C@H](O)[C@H](C)C=C1SCCCS1	GI50	> 100 µM (inactive)
CC(=O)NNc1nc(C)c(C(/C=C/c2ccc([N+](=O)[O-])cc2)=N/N)s1	GI50	> 100 µM (inactive)
COC(=O)c1ccccc1C1CN=NC12Cc1c(ccc(C)c1C)C2=O (stereo not given)	GI50	> 100 µM (inactive)
N#CCN(Cc1ccccc1)[C@H]1CCC[C@]1(O)/C=C/c1ccc2c(c1)OCO2	GI50	21.7 µM (inactive)
Cc1c(C)c(C)c(-n2c(=O)n(C)c(=O)n2-c2cc(C(C)(C)C)cc(C(C)(C)C)c2O)c(C)c1C	GI50	4.18 µM (inactive)
[N-]=[N+]=Nc1ccc(S(=O)(=O)Oc2cc(OS(=O)(=O)c3ccc(N=[N+]=[N-])cc3)cc(OS(=O)(=O)c3ccc(N=[N+]=[N-])cc3)c2)cc1	GI50	> 100 µM (inactive)
COc1cc(C(=O)OC2CC(C)=CC[C@@]3(C)CC[C@](O)(C(C)C)C23)ccc1O (stereo not given in full)	GI50	13.2 µM (inactive)
CC1(C)SCc2nc3ncccc3n21	GI50	> 100 µM (inactive)

---

System: T47D
assay_overview: NCI tumour cell line growth inhibition, 48 h
Calls of active or inactive are those of the source. No stated cut-off is given here; in the data, active = GI50 up to about 1.1 µM and inactive = higher.
Labels: active, inactive

molecule	class
O=C1C=CC2(O[C@H](C3CCCCC3)[C@@H](C3CCCCC3)O2)C(SC(=O)c2ccccc2)C1 (some centres undefined)	active
COc1cc(C(=O)OC2CC(C)=CC[C@@]3(C)CC[C@](O)(C(C)C)C23)ccc1O (some centres undefined)	inactive
CC(C)(Br)C(Br)CC/C(=C/CBr)CBr.CC(C)(Br)C(Br)CC/C(=C\CBr)CBr (centres undefined)	inactive
O=C(CCN1CCCC1)Nc1ccc2sc3ccccc3c(=O)c2n1	inactive
CCCCCC[C@H]([C@H](C)O)n1cnc2c(N)ncnc21	inactive
C[C@]12CC[C@H](O)CC1=CC[C@@H]1[C@@H]2CC[C@]2(C)C(=N/O)/C(=C/c3ccc([N+](=O)[O-])cc3)C[C@@H]12	inactive
Clc1ccc(C2NN=C3c4ccccc4OCC32)cc1 (centres undefined)	inactive
CC1=CC[C@H](C(C)C)C(C(O)[C@@H](C)O[Si](c2ccccc2)(c2ccccc2)C(C)(C)C)C1=O (some centres undefined)	inactive
O=C(O)c1cc(C(=O)O)nc(C(=O)O)c1	inactive

---

Tested on: SNB-78
assay_overview: NCI tumour cell line growth inhibition, 48 h
Calls of active or inactive are those of the source. No stated cut-off is given here; in the data, active = GI50 up to about 1.1 µM and inactive = higher.
measured_property: GI50

molecule	reported_value
CN(C)C(=S)/N=c1\ssc(=S)n1Cc1cccnc1	> 100 µM (inactive)
CC(=O)NC1=C(NCCO)C(=O)c2ccccc2C1=O	> 50 µM (inactive)
CCOc1ccc(NC(=O)CC2C(=O)Nc3ccccc3S2(=O)=O)cc1 (stereo not given)	90.4 µM (inactive)
CC(C)C(/N=C1\CC2CCC1(C(=O)Nc1ccccc1O)C2(C)C)c1ccccc1 (stereo not given)	> 10 µM (inactive)
CCN(CC)Cc1cc(Nc2c3ccccc3nc3c4ccccc4n(C)c23)ccc1O	18.6 µM (inactive)
COC1C(O)C(C)OC(OC2C(Oc3cccc4c(O)c5c(=O)oc6ccc(C)c7c(=O)oc(c34)c5c67)OC(C)C3O[C@H](c4ccccc4)OC32)C1O (stereo not given in full)	0.875 µM (active)
Cn1c(=O)nc2n(-c3ccc(Cl)cc3)c3cc(Cl)ccc3nc-2c1=O	> 37.9 µM (inactive)
COC12CCC(C(C(=O)c3ccccc3)=C1C(=O)c1ccccc1)C(O)C2 (stereo not given)	> 100 µM (inactive)
C#CC(C)(C)OCCCCOc1cc(O)c2c(=O)c3ccccc3n(C)c2c1	> 100 µM (inactive)
COC(=O)C1=C(C(=O)OC)C2(C)Nc3ccccc3C2=C(c2ccccc2)C1 (stereo not given)	19 µM (inactive)
